Test Method Notes: Ratio of drug concentration in male Dunkin Hartley guinea pig brain to plasma at 10 mg/kg, po measured after 4 hrs by LC-MS/MS analysis
Format: ADME, organism-based, Cavia porcellus
Applied Conditions: read-out: BPR
Assay Readout: Kp at 4 h

* Cl.Cl.Oc1cc(NCCCCCN2CCOCC2)ccc1Oc1c(F)c(F)c(C(F)(F)F)c(F)c1F | 18

* * *

Test Method Notes: Drug concentration in male Dunkin Hartley guinea pig brain at 10 mg/kg, po measured after 4 hrs by LC-MS/MS analysis
Format: ADME, organism-based, Cavia porcellus
Applied Conditions: read-out: Ct
Assay Readout: concentration at 4 h

• Cl.Cl.Oc1cc(NCCCCCN2CCOCC2)ccc1Oc1c(F)c(F)c(C(F)(F)F)c(F)c1F = 414 ng/g

// data source = ChEMBL document CHEMBL6153133
